target: human vasopressin V2 receptor (Homo sapiens); assay: Receptor binding study, [3H]AVP displacement on CHO cell membranes, human V2; conditions: [3H]AVP displacement, CHO cell membrane, 25° C., one hour; read-out: Human V2 Ki
Sequence (P30518 whole entry): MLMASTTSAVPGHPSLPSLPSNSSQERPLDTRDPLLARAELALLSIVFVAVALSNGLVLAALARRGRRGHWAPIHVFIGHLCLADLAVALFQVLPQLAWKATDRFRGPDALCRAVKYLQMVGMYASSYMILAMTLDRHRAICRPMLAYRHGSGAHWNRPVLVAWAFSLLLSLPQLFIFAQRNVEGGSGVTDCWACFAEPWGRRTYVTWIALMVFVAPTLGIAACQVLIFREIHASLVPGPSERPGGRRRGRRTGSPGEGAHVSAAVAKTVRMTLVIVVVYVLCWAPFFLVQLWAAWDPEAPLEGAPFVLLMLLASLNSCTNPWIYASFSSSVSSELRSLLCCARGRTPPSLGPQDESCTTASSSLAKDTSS
pKi: −log10 of the molar value.
Experimental Readout: pKi

C[C@H]1CCN(C(=O)c2ccc(-c3ccc4[nH]ccc4c3)c(OCCCN3C(=O)CSC3=O)c2)c2ccccc2N1; 8.49
CCCN1CCN(CCCOc2cc(C(=O)N3CC[C@H](C)Nc4ccccc43)ccc2-c2ccc(NCC)cc2)CC1; 7.96
C[C@H]1CCN(C(=O)c2ccc(-c3ccc4[nH]ccc4c3)c(OCCCCCN3CCOCC3)c2)c2ccccc2N1; 7.77
Cc1ccc2c(c1)NC(C)CCN2C(=O)c1ccc(-c2ccc3[nH]ccc3c2)c(OCCN2CCOCC2)c1 (stereo not drawn); 8.46
CC1CCN(C(=O)c2ccc(-c3ccc4[nH]ccc4c3)c(OCCCN)c2)c2ccccc2N1 (stereo not drawn); 7.77

[I] C[C@H]1CCN(C(=O)c2ccc(-c3ccc4[nH]ccc4c3)c(OCCCN)c2)c2ccccc2N1
[II] C[C@H]1CCN(C(=O)c2ccc(-c3ccc4[nH]ccc4c3)c(NS(C)(=O)=O)c2)c2ccccc2N1
[III] CCCN(C)CCCOc1cc(C(=O)N2CC[C@H](C)Nc3ccccc32)ccc1-c1ccc(NC)cc1
[IV] CCCN1CCC(OC(=O)c2cc(C(=O)N3CC[C@H](C)Nc4ccccc43)ccc2-c2ccc3[nH]ccc3c2)CC1
[V] CC1CCN(C(=O)c2ccc(-c3ccc4[nH]ccc4c3)c(OCCCNC(=O)CN)c2)c2ccccc2N1 (stereo not drawn)
Rank descending by pKi. Your reply should list the labels following the order given in the request.
II, V, I, IV, III

[a] CNCCCOc1cc(C(=O)N2CC[C@H](C)Nc3ccccc32)ccc1-c1ccc2[nH]ccc2c1
[b] C[C@H]1CCN(C(=O)c2ccc(-c3ccc(N)cc3)c(OCCCN)c2)c2ccccc2N1
[c] C[C@H]1CCN(C(=O)c2ccc(-c3ccc4[nH]ccc4c3)c(C(=O)OCCCN(C)C)c2)c2ccccc2N1
Order each entry by recorded pKi, climbing from the minimum. Your reply should list the labels following the order given in the request.
b, c, a
(b: 6.14, c: 7.03, a: 7.92)

[1] C[C@@H]1CCN(C(=O)c2ccc(-c3ccc4[nH]ccc4c3)c(OCCN3CCOCC3)c2)c2ccccc2N1
[2] CCCN(C)CCCOc1cc(C(=O)N2CC[C@@H](C)Nc3ccccc32)ccc1-c1ccc2[nH]ccc2c1
Parameter metric = pKi. Return the lower-valued option from 1 and 2 . // return label of chosen record
2
(2: 7.11, 1: 8.44)
